# System: MDA-MB-436
# protocolText: normalised response (% of control), CellTiter-Glo; higher = more viable cells (100 = DMSO, 0 = benzethonium chloride kill control)
# protocolConditions: incubation time: 72 h
measuredAttribute: normalised response
Mention the unit after the number when you answer.

O=C1CCC(N2C(=O)c3ccccc3C2=O)C(=O)N1 (stereo not given) [Thalidomide] (100 nM)
101%
CCC1=C[C@@H]2CN(C1)Cc1c([nH]c3ccccc13)[C@@](C(=O)OC)(c1cc3c(cc1OC)N(C)[C@H]1[C@@](O)(C(=O)OC)[C@H](OC(C)=O)[C@]4(CC)C=CCN5CC[C@]31[C@@H]54)C2 [Vinorelbine] (100 nM)
38.8%
CS(=O)(=O)c1ccc(C2=C(c3ccccc3)C(=O)OC2)cc1 [Rofecoxib] (100 nM)
105%

# assay system MDA-MB-436: give normalised response of CN[C@@H]1C[C@H]2O[C@@](C)([C@@H]1OC)n1c3ccccc3c3c4c(c5c6ccccc6n2c5c31)C(=O)N[C@H]4O [UCN-01] (100 nM) 52%

# assay system MDA-MB-436: give normalised response of N[C@@H](CSC(c1ccccc1)(c1ccccc1)c1ccccc1)C(=O)O [S-trityl-L-cysteine] (400 nM) 98.9%

# assay system MDA-MB-436: give normalised response of CO[C@H]1/C=C\C=C(/C)C(=O)NC2=CC(=O)C(NCCN(C)C)=C(C[C@@H](C)C[C@H](OC)[C@H](O)[C@@H](C)/C=C(\C)[C@@H]1OC(N)=O)C2=O [Alvespimycin] (10 nM) 76.8%

# assay system MDA-MB-436: give normalised response of O=C(CCCCCCC(=O)Nc1ccc([C@H]2O[C@@H](CSc3nc(-c4ccccc4)c(-c4ccccc4)o3)C[C@@H](c3ccc(CO)cc3)O2)cc1)NO [Tubacin] (100 nM) 96.8%

# assay system MDA-MB-436: give normalised response of Cn1c(Nc2ccc(C(F)(F)F)cc2)nc2cc(Oc3ccnc(-c4ncc(C(F)(F)F)[nH]4)c3)ccc21 [RAF265] (10 nM) 109%

# assay system MDA-MB-436: give normalised response of O=C(O)c1ccc(-c2c[nH]c3ncc(-c4ccccc4)cc23)cc1C1CCCC1 (100 nM) 89.5%

# assay system MDA-MB-436: give normalised response of Oc1nc(-c2ccc(C(F)(F)F)cc2)nc2c1CSCC2 [XAV-939] (100 nM) 102%
